Test system: U-937
Protocol: Induction of apoptosis in human U937 cells assessed as necrotic cells at 3 uM after 48 hrs by muse Annexin V/dead cell reagent staining-based flow cytometric analysis (reference value: 0.06%)
Format: functional
Readout kind: Activity (%)
# output: bare number, implied unit %

Answered examples (4):
{"Structure string": "Cc1c(C(=O)/C=C/c2ccc([N+](=O)[O-])cc2)cc2cccn2c1C(=O)c1ccccc1", "Units label": "%", "Reported measurement": 1.57}
{"Structure string": "Cc1c(C(=O)/C=C/c2ccc(Br)cc2)cc2cccn2c1C(=O)c1ccccc1", "Units label": "%", "Reported measurement": 0.77}
{"Structure string": "COc1cc(/C=C/C(=O)c2cc3cccn3c(C(=O)c3ccccc3)c2C)cc(OC)c1", "Units label": "%", "Reported measurement": 0.62}
{"Structure string": "Cc1c(C(=O)/C=C/c2cccc(Cl)c2)cc2cccn2c1C(=O)c1ccccc1", "Units label": "%", "Reported measurement": 0.55}

Request the reported Activity associated with `Cc1c(C(=O)/C=C/c2ccncc2)cc2cccn2c1C(=O)c1ccccc1` 0.93
